Overview of reported pIC50 across a group of binders:
Experimental Target: recombinant human PD-L1 (Sino Biological Inc.) (human, UniProt Q9NZQ7 19-239)
Sequence (Q9NZQ7 19-239 limits assumed): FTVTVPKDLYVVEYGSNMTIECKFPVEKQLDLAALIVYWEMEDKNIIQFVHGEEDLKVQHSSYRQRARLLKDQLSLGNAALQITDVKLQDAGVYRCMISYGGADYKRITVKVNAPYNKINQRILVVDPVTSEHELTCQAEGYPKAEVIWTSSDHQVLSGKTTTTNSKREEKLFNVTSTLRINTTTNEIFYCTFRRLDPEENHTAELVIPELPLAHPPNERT
Experiment Summary: PD-L1/CD80 blocking assay, competitor CD80, format not described
A value of pIC50 is the negative decimal logarithm of a concentration given in moles per litre.

# example entries with known answers
humanized anti-human PD-L1 monoclonal antibody VLS10-VHS7 P1 (antibody, human IgG1, kappa, V domains shown) VH: QVQLVQSGAEVKKPGSSVKVSCTASGFNIEDTYIHWVRQAPGQGLEWMGRIDPAQGNTKYDPKFQGRVTITADTSTNTAYMELSSLRSEDTAVYYCGRGLGAWFAYWGQGTLVTVSS VL: DIQMTQSPSSLSASVGDRVTITCKASQDVHTAVAWIHQKPGKAPKLLIYSASNRYTGVPSRFSGSGSGTDFTFTISSLQPEDIATYYCQQHYITPLTFGQGTKLEIKR    9.06
humanized anti-human PD-L1 monoclonal antibody VLS10-VHS7 P3 (antibody, human IgG1, kappa, V domains shown) VH: QVQLVQSGAEVKKPGSSVKVSCTASGFNIEDTYIHWVRQAPGQGLEWMGRIDPANANTKYDPKFQGRVTITADTSTNTAYMELSSLRSEDTAVYYCGRGLGAWFAYWGQGTLVTVSS VL: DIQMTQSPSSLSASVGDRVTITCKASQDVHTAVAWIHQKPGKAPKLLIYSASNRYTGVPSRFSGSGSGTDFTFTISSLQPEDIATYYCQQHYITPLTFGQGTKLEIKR    9.09
chimeric anti-human PD-L1 monoclonal antibody (antibody, human IgG1, kappa, V domains shown, expressed in ExpiCHO cells; also called Chimeric mAb; Chimeric antibody) VH: EVQLQQSGAELVKPGASVKLSCTASGFNIEDTYIHWVMQRPEQGLEWIGRIDPANGNTKYDPKFQGKATITADTSSNTAYLQLSSLTSEDTAVYYCGRGLGAWFAYWGQGTLVTVSA VL: DIVMTQSHKVMSTSVGDRVTITCKASQDVHTAVAWIHQKPGQSPKLLIYSASNRYTGVPDRFTGSGSGTDFTFTISSVQAEDLAVYYCQQHYITPLTFGAGTTLELKR    9.12

Turning now to a further binder:
binder humanized anti-human PD-L1 monoclonal antibody VLS15-VHS12 P3 (antibody, human IgG1, kappa, V domains shown) VH: EVQLVQSGAEVKKPGSSVKVSCKASGFNIEDTYIHWVRQAPGQGLEWMGRIDPANANTKYDPKFQGRVTITADTSTNTAYMELSSLRSEDTAVYYCGRGLGAWFAYWGQGTLVTVSS VL: DIQMTQSPSSLSASVGDRVTITCKASQDVHTAVAWIQQKPGKSPKLLIYSASNRYTGVPSRFSGSGSGTDFTFTISSLQPEDIATYYCQQHYITPLTFGQGTKLEIKR , pIC50 observed: 9.09
